- Test system: Plasmodium berghei
- experiment.summary: Screen against P. berghei liver stage (PbLuc), transformed with Luciferase, at 10uM
- Format: functional, HepG2
- conditions: tested at 10 uM
Hit rate of the full screen: of about 69,000 compounds, about 8,600 (12%) showed an effect of 50% or more. Only a selection was taken, and strong results are over-represented in it overall.
measured.metric: INHIBITION (%)
Please state the figure in %; there is no need to write the unit.

Illustrative cases are given below, each with its answer.
[[record]]
molecule = "O=C(NCC1CCN(c2ncccn2)CC1)c1cnccn1"
measured_number = 71.8

[[record]]
molecule = "Cc1cc(C(=O)N2CCCC(c3nncn3C)C2)no1 (stereo not given)"
measured_number = 36.5

[[record]]
molecule = "O=C(Cc1cccs1)N1C[C@@H]2CN(Cc3ccoc3)CCO[C@@H]2C1"
measured_number = 24.1

[[record]]
molecule = "CC(CC(=O)NCCS(N)(=O)=O)C1CCCCC1 (stereo not given)"
measured_number = 16

[[record]]
molecule = "O=C(Cc1ccsc1)N1C[C@@H]2C[C@@H](c3nnc(C4CC4)o3)O[C@@H]2C1"
measured_number = 61.8

[[record]]
molecule = "CN(C)c1ncccc1CNS(=O)(=O)c1ccc(F)c(F)c1"
measured_number = 11.2

[[record]]
molecule = "CS(=O)(=O)N1CCC(CNC(=O)c2cnccn2)CC1"
measured_number = 43.8

[[record]]
molecule = "Cn1cnnc1C1CCCN(C(=O)NCc2ccccn2)C1 (stereo not given)"
measured_number = 1.75


Record summary for O=C(c1cccs1)N1CC[C@H]2C[C@@H](c3nnc(C4CC4)o3)O[C@@H]2C1 : reported INHIBITION = 26.7

Record summary for CCc1nc(C2CCCN(C(=O)C(C)(C)NS(C)(=O)=O)C2)no1 (stereo not given) : reported INHIBITION = 3.73

FYI, the data here is from ChEMBL document CHEMBL4513216.
